From: patent US9724352B2

Documented IC50 across a set of compounds
molecular target: PI3Kα (Homo sapiens (Human))
Sequence (P42336 whole entry): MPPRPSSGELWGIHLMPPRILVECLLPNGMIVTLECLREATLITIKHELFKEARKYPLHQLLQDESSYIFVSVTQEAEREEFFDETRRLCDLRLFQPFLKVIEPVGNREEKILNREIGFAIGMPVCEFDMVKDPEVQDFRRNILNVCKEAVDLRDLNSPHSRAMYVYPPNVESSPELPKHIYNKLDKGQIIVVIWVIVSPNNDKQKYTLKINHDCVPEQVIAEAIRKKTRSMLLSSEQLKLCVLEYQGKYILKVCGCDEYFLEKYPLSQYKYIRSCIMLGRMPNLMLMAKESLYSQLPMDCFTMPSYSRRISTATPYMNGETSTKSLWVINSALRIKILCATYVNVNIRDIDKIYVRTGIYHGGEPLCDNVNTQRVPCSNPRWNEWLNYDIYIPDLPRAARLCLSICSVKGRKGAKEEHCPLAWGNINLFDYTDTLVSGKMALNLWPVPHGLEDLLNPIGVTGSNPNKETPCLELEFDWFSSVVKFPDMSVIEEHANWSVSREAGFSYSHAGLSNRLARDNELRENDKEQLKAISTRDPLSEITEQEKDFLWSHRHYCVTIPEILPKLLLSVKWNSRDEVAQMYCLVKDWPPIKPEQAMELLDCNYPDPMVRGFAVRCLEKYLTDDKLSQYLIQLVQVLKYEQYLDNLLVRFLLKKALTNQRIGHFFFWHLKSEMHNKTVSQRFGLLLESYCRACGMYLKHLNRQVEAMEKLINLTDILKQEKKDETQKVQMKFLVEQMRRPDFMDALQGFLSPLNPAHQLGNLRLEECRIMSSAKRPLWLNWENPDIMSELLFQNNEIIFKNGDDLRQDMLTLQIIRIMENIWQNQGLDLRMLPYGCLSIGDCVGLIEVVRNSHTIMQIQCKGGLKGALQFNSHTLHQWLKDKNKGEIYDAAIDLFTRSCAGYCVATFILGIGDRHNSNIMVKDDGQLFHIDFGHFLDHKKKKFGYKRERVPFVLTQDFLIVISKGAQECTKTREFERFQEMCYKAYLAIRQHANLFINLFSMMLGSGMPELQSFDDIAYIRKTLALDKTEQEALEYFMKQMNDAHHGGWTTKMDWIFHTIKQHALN
Sequence (P27986 whole entry partner): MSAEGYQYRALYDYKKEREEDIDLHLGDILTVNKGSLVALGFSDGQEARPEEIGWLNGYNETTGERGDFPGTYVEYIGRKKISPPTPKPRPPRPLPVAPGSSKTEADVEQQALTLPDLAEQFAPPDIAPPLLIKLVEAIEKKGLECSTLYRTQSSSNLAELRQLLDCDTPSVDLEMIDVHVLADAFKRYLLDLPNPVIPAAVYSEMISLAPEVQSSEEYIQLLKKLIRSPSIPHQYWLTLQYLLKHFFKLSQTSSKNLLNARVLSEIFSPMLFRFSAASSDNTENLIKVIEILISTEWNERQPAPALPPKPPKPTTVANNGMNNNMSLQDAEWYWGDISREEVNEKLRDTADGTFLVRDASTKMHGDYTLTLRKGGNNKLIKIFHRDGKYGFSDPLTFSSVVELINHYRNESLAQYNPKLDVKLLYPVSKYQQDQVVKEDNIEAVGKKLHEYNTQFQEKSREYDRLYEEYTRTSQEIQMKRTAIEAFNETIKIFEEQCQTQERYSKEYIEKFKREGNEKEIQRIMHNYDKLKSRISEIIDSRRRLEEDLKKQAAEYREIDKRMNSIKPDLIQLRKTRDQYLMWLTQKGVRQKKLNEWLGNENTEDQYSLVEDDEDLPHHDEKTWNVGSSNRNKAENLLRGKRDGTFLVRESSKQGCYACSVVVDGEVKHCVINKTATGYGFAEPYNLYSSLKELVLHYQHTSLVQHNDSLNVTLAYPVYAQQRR

compound	units label	IC50
CN1CCN(C(=O)c2ccc(NC(=O)Nc3ccc(-c4nc(N5CCOCC5)c5cc(CN6CCN(S(C)(=O)=O)CC6)cn5n4)cc3)cc2)CC1 [Compound I-22]	nM	9.59
CCNC(=O)Nc1cc(C(F)(F)F)c(-c2nc(N3CCOCC3)c3cc(CN4CCN(S(C)(=O)=O)CC4)cn3n2)cn1 [Compound I-30]	nM	8.19
CS(=O)(=O)N1CCN(Cc2cc3c(N4CCOCC4)nc(-c4cnc(NC(=O)Nc5ccc(F)cc5)cc4C(F)(F)F)nn3c2)CC1 [Compound I-28]	nM	9.3
